In this section we review reported Kd values for a set of binders.
# system name: T1, human PD-L1 extracellular domain (human, UniProt Q9NZQ7 19-238)
# T1 construct: also called recombinant PD-L1; recombinant human PD-L1 extracellular domain protein
# T1 sequence (Q9NZQ7 19-238 limits assumed): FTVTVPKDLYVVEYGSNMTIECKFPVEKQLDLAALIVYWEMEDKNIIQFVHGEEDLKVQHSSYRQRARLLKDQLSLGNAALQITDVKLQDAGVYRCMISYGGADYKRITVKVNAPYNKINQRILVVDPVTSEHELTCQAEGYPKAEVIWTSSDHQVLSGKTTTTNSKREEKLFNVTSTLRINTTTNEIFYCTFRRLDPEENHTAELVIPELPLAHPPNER
# protocol: BLI (Octet Red 96), antibody on anti-human Fc biosensor, PD-L1 ECD in solution, 1:1 global fit
Output spec: scalar in nM, unitless text.

Example binders with recorded Kd:
Lookup: What does the data say about its Kd? Entry: AB5HU (humanized form of antibody AB5) (antibody, human IgG1, kappa, V domains shown, Humanized, human gamma-1 / kappa constant domains) VH: QSVEESGGGLVQPGGSLRLSCTASGIDLNTYDMIWVRQAPGKGLEWVGIITYSGSRYYANWAKGRFTISKDNTKNTVYLQMNSLRAEDTAVYYCARDYMSGSHLWGQGTLVTVSS VL: AYDMTQSPSSVSASVGDRVTIKCQASEDIYSFLAWYQQKPGKAPKLLIHSASSLASGVPSRFSGSGSGTDFTLTISSLQPEDFATYYCQQGYGKNNVDNAFGGGTKVEIKR
Found: 0.401

Lookup: Please look up its Kd: AB1 (rabbit/human chimeric anti-PD-L1 antibody) (antibody, human IgG1, kappa, V domains shown, Rabbit variable domains on human IgG1 / human kappa constant domains; purified by protein A from HEK-293 supernatants; also called AB1 CHIMERIC) VH: QEQLVESGGGLVQPEGSLTLTCKASGFSFSSGYDMCWVRRAPGKGLEWIACIAAGSAGITYDANWAKGRFTISKTSSTTVTLQMTSLTAADTATYFCARSAFSFDYAMDLWGPGTLVTVSS VL: DPVLTQTPASVEVAVGGTVTIKCQASQSISSHLNWYQQKPGQPPKLLIYKASTLASGVPSRFKGSGSGTEFTLTISSVQCDNAATYYCQQGYSWGNVDNVFGGGTEVVVKR
Found: 0.347

Continuing:
Lookup: Which Kd value belongs to AB1HU (humanized form of antibody AB1) (antibody, human IgG1, kappa, V domains shown, Humanized, human gamma-1 / kappa constant domains) VH: EVQLLESGGGLVQPGGSLRLSCAASGFSFSSGYDMCWVRQAPGKGLEWIACIAAGSAGITYDANWAKGRFTISRDNSKNTLYLQMNSLRAEDTAVYYCARSAFSFDYAMDLWGQGTLVTVSS VL: DIQMTQSPSTLSASVGDRVTITCQASQSISSHLNWYQQKPGKAPKLLIYKASTLASGVPSRFSGSGSGTEFTLTISSLQPDDFATYYCQQGYSWGNVDNVFGGGTKVEIKR ?
Found: 0.422
